- target_entity: Human immunodeficiency virus type 1 reverse transcriptase (Human immunodeficiency virus 1, UniProt Q72547)
Consider the following molecules and their measured pIC50 readings.
Scale: pIC50 equals -log10([C]), with [C] in mol/L.

- Cc1cn([C@H]2C[C@H](N=[N+]=[N-])[C@@H](CO)O2)c(=O)[nH]c1=O: 7.40

// next entry
Task: Entry under review: `Cc1cn([C@H]2CC(F)(F)[C@@H](CO)O2)c(=O)[nH]c1=O` . Reported pIC50?
Output: 5.06

Cited source for all entries: ChEMBL document CHEMBL1126119
